Tested on: green peach aphid (Myzus persicae)
Assay: Insecticidal test for green peach aphid in foliar spray assay
Type: in vivo
Conditions: Myzus persicae, 72 h; 50 ppm, foliar spray on cabbage seedlings, 3 days, Corrected % Control (Abbott); read-out: GPA 50: % control at 50 ppm against green peach aphid in foliar spray tests
Experimental endpoint: pest or weed control at 50 ppm

* C/S(Cc1ccc(C(C)(F)F)nc1)=N\C#N (centres unmarked) [Compound 8] | 60 to 69%
* N#C/N=S1/CCC(c2ccc(C(F)(F)F)nc2)C1 (centres unmarked) [Compound 6] | 50 to 59%
* CC(c1ccc(C(F)(F)Cl)nc1)/S(C)=N/C#N (centres unmarked) [Compound 2] | 90 to 100%

Query :: Annotate the compound CC(c1ccc(C(Cl)(Cl)Cl)nc1)/S(C)=N/C#N (centres unmarked) [Compound 3] with its measured pest or weed control at 50 ppm.
Result :: 90 to 100%

Query :: Annotate the compound C/S(Cc1cnc(Cl)c(F)c1)=N\C#N (centres unmarked) [Compound 7] with its measured pest or weed control at 50 ppm.
Result :: 60 to 69%

###

Here the recorded pest or weed control at 200 ppm is given for each entry.
System: green peach aphid (Myzus persicae)
Assay: Insecticidal test for green peach aphid in foliar spray assay
Format: in vivo
Settings: Myzus persicae, 72 h; 200 ppm, foliar spray on cabbage seedlings, 3 days, Corrected % Control (Abbott); read-out: GPA 200: % control at 200 ppm against green peach aphid in foliar spray tests

# count of solved cases: 5
- CC(c1ccc(C(Cl)(Cl)Cl)nc1)/S(C)=N/C#N (stereo not shown): 90 to 100%
- CC(c1cnc(Cl)nc1)/S(C)=N/C#N (stereo not shown): < 50%
- C/S(Cc1ccc(C(C)(F)F)nc1)=N\C#N (stereo not shown): 90 to 100%
- C/S(Cc1cnc(Cl)c(F)c1)=N\C#N (stereo not shown): 70 to 79%
- CS(=NC#N)[C@@H]1CCC[C@@H]1c1ccc(Cl)nc1 (relative stereo): 60 to 69%

Query :: Annotate the compound N#C/N=S1/CCC(c2ccc(C(F)(F)F)nc2)C1 (stereo not shown) with its measured pest or weed control at 200 ppm.
Result :: 70 to 79%

Query :: Annotate the compound CC(c1ccc(C(F)(F)Cl)nc1)/S(C)=N/C#N (stereo not shown) with its measured pest or weed control at 200 ppm.
Result :: 90 to 100%
